Recorded values, source ChEMBL document CHEMBL6109070.

Documented half-life across a set of molecules
experiment: Stability in rat plasma assessed as half life; format: ADME, cell-free
Just so you know, I need the unit written after the number.

A selection of reference data follows.
[[record]]
structure = "CCCCCCCCCCCCCCCC(=O)N[C@H](C(=O)N[C@@H](C)C(=O)N[C@@H](CCC(N)=O)C(=O)N[C@@H](CCC(=O)O)C(=O)N[C@@H](CC(C)C)C(=O)N[C@@H](CCCNC(=N)N)C(=O)N[C@@H](CCCNC(=N)N)C(=O)N[C@@H](C(=O)NCC(=O)N[C@@H](CC(=O)O)C(=O)N[C@@H](CCC(=O)O)C(=O)N[C@@H](Cc1ccccc1)C(=O)O)[C@@H](C)CC)[C@@H](C)CC"
recorded_metric = "half-life"
observed_result = "101 h"

[[record]]
structure = "CCCCCCCCCCCCCCCC(=O)N[C@H](C(=O)N[C@H](C)C(=O)N[C@@H](CCC(N)=O)C(=O)N[C@@H](CCC(=O)O)C(=O)N[C@@H](CC(C)C)C(=O)N[C@@H](CCCNC(=N)N)C(=O)N[C@@H](CCCNC(=N)N)C(=O)N[C@H](C(=O)NCC(=O)N[C@@H](CC(=O)O)C(=O)N[C@@H](CCC(=O)O)C(=O)N[C@@H](Cc1ccccc1)C(=O)O)[C@@H](C)CC)[C@@H](C)CC"
recorded_metric = "half-life"
observed_result = "102 h"

[[record]]
structure = "CCCCCCCCCCCCCCCC(=O)N[C@H](C(=O)N[C@@H](C)C(=O)N[C@@H](CCC(N)=O)C(=O)N[C@@H](CCC(=O)O)C(=O)N[C@@H](CC(C)C)C(=O)N[C@@H](CCCNC(=N)N)C(=O)N[C@@H](CCCNC(=N)N)C(=O)N[C@H](C(=O)NCC(=O)N[C@@H](CC(=O)O)C(=O)N[C@@H](CCC(=O)O)C(=O)N[C@@H](Cc1ccccc1)C(=O)O)[C@@H](C)CC)[C@@H](C)CC"
recorded_metric = "half-life"
observed_result = "10.6 h"


Consider the additional molecule presented here.
IN: Can you look up the measured half-life of CCCCCCCCCCCCCCCC(=O)N[C@H](C(=O)N[C@@H](C(=O)N[C@@H](CCC(N)=O)C(=O)N[C@@H](CCC(=O)O)C(=O)N[C@@H](CC(C)C)C(=O)N[C@@H](CCCNC(=N)N)C(=O)N[C@@H](CCCNC(=N)N)C(=O)N[C@H](C(=O)NCC(=O)N[C@@H](CC(=O)O)C(=O)N[C@@H](CCC(=O)O)C(=O)N[C@@H](Cc1ccccc1)C(=O)O)[C@@H](C)CC)C(C)C)[C@@H](C)CC for me?
OUT: 70.7 h

----------
target: Tyrosine-protein phosphatase non-receptor type 1 (Homo sapiens); assay: Binding affinity to PTPN1 (unknown origin) assessed as observed […] rate constant (Kobs) by Bio-Layer Interferometric analysis
The entries below are paired with their reported Kobs.

[[record]]
structure = "CCCCCCCCCCCCCCCC(=O)N[C@H](C(=O)N[C@@H](C(=O)N[C@@H](CCC(N)=O)C(=O)N[C@@H](CCC(=O)O)C(=O)N[C@@H](CC(C)C)C(=O)N[C@@H](CCCNC(=N)N)C(=O)N[C@@H](CCCNC(=N)N)C(=O)N[C@H](C(=O)NCC(=O)N[C@@H](CC(=O)O)C(=O)N[C@@H](CCC(=O)O)C(=O)N[C@@H](Cc1ccccc1)C(=O)O)[C@@H](C)CC)C(C)C)[C@@H](C)CC"
recorded_metric = "Kobs"
observed_result = "6.14 10^-3No_unit"

[[record]]
structure = "CCCCCCCCCCCCCCCC(=O)N[C@H](C(=O)N[C@H](C)C(=O)N[C@@H](CCC(N)=O)C(=O)N[C@@H](CCC(=O)O)C(=O)N[C@@H](CC(C)C)C(=O)N[C@@H](CCCNC(=N)N)C(=O)N[C@@H](CCCNC(=N)N)C(=O)N[C@H](C(=O)NCC(=O)N[C@@H](CC(=O)O)C(=O)N[C@@H](CCC(=O)O)C(=O)N[C@@H](Cc1ccccc1)C(=O)O)[C@@H](C)CC)[C@@H](C)CC"
recorded_metric = "Kobs"
observed_result = "6.69 10^-3No_unit"

[[record]]
structure = "CCCCCCCCCCCCCCCC(=O)N[C@H](C(=O)N[C@H](Cc1ccc(O)cc1)C(=O)N[C@@H](CCC(N)=O)C(=O)N[C@@H](CCC(=O)O)C(=O)N[C@@H](CC(C)C)C(=O)N[C@@H](CCCNC(=N)N)C(=O)N[C@@H](CCCNC(=N)N)C(=O)N[C@H](C(=O)NCC(=O)N[C@@H](CC(=O)O)C(=O)N[C@@H](CCC(=O)O)C(=O)N[C@@H](Cc1ccccc1)C(=O)O)[C@@H](C)CC)[C@@H](C)CC"
recorded_metric = "Kobs"
observed_result = "8.87 10^-3No_unit"

[[record]]
structure = "CCCCCCCCCCCCCCCC(=O)N[C@H](C(=O)N[C@@H](C)C(=O)N[C@@H](CCC(N)=O)C(=O)N[C@@H](CCC(=O)O)C(=O)N[C@@H](CC(C)C)C(=O)N[C@@H](CCCNC(=N)N)C(=O)N[C@@H](CCCNC(=N)N)C(=O)N[C@@H](C(=O)NCC(=O)N[C@@H](CC(=O)O)C(=O)N[C@@H](CCC(=O)O)C(=O)N[C@@H](Cc1ccccc1)C(=O)O)[C@@H](C)CC)[C@@H](C)CC"
recorded_metric = "Kobs"
observed_result = "3.31 10^-2No_unit"


Turning to the following compound.
IN: # Kobs lookup, item CCCCCCCCCCCCCCCC(=O)N[C@H](C(=O)N[C@@H](C)C(=O)N[C@@H](CCC(N)=O)C(=O)N[C@@H](CCC(=O)O)C(=O)N[C@@H](CC(C)C)C(=O)N[C@@H](CCCNC(=N)N)C(=O)N[C@@H](CCCNC(=N)N)C(=O)N[C@H](C(=O)NCC(=O)N[C@@H](CC(=O)O)C(=O)N[C@@H](CCC(=O)O)C(=O)N[C@@H](Cc1ccccc1)C(=O)O)[C@@H](C)CC)[C@@H](C)CC
OUT: 7.3 10^-3No_unit

----------
Biological target: Tyrosine-protein phosphatase non-receptor type 1 (Homo sapiens)
Sequence (whole entry): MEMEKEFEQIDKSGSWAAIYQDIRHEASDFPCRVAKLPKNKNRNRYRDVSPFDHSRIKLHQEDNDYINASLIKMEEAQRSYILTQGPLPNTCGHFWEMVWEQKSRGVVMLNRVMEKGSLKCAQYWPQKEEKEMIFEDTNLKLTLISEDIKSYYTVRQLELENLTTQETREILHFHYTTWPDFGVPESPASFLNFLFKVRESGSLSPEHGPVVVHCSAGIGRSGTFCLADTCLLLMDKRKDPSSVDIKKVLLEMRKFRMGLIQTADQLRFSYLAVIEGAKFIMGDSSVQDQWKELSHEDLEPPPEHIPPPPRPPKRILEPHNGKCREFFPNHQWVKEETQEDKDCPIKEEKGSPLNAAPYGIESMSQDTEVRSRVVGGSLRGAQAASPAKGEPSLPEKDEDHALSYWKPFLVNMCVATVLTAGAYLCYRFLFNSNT
Assay: Binding affinity to PTPN1 (unknown origin) assessed as association rate constant (Kon) by Bio-Layer Interferometric analysis
# K per record follows

[[record]]
structure = "CCCCCCCCCCCCCCCC(=O)N[C@H](C(=O)N[C@@H](C(=O)N[C@@H](CCC(N)=O)C(=O)N[C@@H](CCC(=O)O)C(=O)N[C@@H](CC(C)C)C(=O)N[C@@H](CCCNC(=N)N)C(=O)N[C@@H](CCCNC(=N)N)C(=O)N[C@H](C(=O)NCC(=O)N[C@@H](CC(=O)O)C(=O)N[C@@H](CCC(=O)O)C(=O)N[C@@H](Cc1ccccc1)C(=O)O)[C@@H](C)CC)C(C)C)[C@@H](C)CC"
observed_result = "2.78 10^2/Ms"

[[record]]
structure = "CCCCCCCCCCCCCCCC(=O)N[C@H](C(=O)N[C@@H](C)C(=O)N[C@@H](CCC(N)=O)C(=O)N[C@@H](CCC(=O)O)C(=O)N[C@@H](CC(C)C)C(=O)N[C@@H](CCCNC(=N)N)C(=O)N[C@@H](CCCNC(=N)N)C(=O)N[C@H](C(=O)NCC(=O)N[C@@H](CC(=O)O)C(=O)N[C@@H](CCC(=O)O)C(=O)N[C@@H](Cc1ccccc1)C(=O)O)[C@@H](C)CC)[C@@H](C)CC"
observed_result = "2.35 10^2/Ms"


Now consider the entry below.
IN: Bench note: what K did CCCCCCCCCCCCCCCC(=O)N[C@H](C(=O)N[C@H](Cc1ccc(O)cc1)C(=O)N[C@@H](CCC(N)=O)C(=O)N[C@@H](CCC(=O)O)C(=O)N[C@@H](CC(C)C)C(=O)N[C@@H](CCCNC(=N)N)C(=O)N[C@@H](CCCNC(=N)N)C(=O)N[C@H](C(=O)NCC(=O)N[C@@H](CC(=O)O)C(=O)N[C@@H](CCC(=O)O)C(=O)N[C@@H](Cc1ccccc1)C(=O)O)[C@@H](C)CC)[C@@H](C)CC show?
OUT: 4.4 10^2/Ms
